Provide the reported switch fluorescence ratio of each item.
- System: ATP;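 note: ATP exposure 15 min at 22 °C before imaging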
- measurementDescription: switch fluorescence ratio, 500 uM ATP over buffer (Cy3 cluster intensity, sum of 5 cycles each) (fold (ratio)); higher = stronger signal-on switching upon ATP binding; sequences stand for … in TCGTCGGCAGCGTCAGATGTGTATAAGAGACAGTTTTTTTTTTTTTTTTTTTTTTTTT…TC
- assayConditions: aptamer strand: ATP DNA aptamer (quencher-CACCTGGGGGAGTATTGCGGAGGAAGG + anchor), 100 nM annealed; ATP concentration: 500 uM
Could you respond with only the numeric value?

Query :: Which switch fluorescence ratio is reported for this sequence? "TATCGAATTA"
Result :: 0.987

Query :: Repeat with "TCAGTGAGTA"
Result :: 0.98

Query :: What about "TCCGGCTTTG" ?
Result :: 0.953

Query :: Another sequence to check: "AGGGGGCTGC"
Result :: 0.995

Query :: Would you kindly repeat that for "GTTTAATTGG" ?
Result :: 1

Query :: Thanks! And "GAAGTAGTGG" ?
Result :: 1.01

Query :: Next: "TAAGTACGTG"
Result :: 1.18

Query :: // same read-out, input: "AGAAAGTTTG"
Result :: 1.01

Query :: Try "CTGGGGGTCA" next.
Result :: 1.04

Query :: "GATTGAAGGG" ?
Result :: 0.979

Query :: // next record "TACCTCACTA"
Result :: 1.42

Query :: Try this sequence next: "AGCCTTTTTG"
Result :: 0.992

Query :: Also "TCGGAAGACA" ?
Result :: 1.01

Query :: For "CGACATCGCA" then?
Result :: 1.32

Query :: Another: "CACGCATGTT"
Result :: 1.09

Query :: Try this sequence too: "GCGATTAGAG"
Result :: 1

Query :: # repeat for "TGCGATTGTT"
Result :: 1.01

Query :: How about "ATCGGATTGG" ?
Result :: 1.03

Query :: Request: "AAGGTCATAA"
Result :: 1.01

Query :: Another sequence to check: "TTATCATATA"
Result :: 1.06

Query :: Check "ACTCTAGTAC" too.
Result :: 1.31

Query :: And what about the sequence "TGCGAGGGGG" ?
Result :: 1.01

Query :: Then "GATATCATCT" ?
Result :: 0.99

Query :: Another sequence to check: "TCGACGGGGA"
Result :: 1.1

Query :: What do you have for "CTTAACCTTC" ?
Result :: 2.43

Query :: Same question for "GGGAGGAGGT" please.
Result :: 0.98

Query :: Now the same for "CGGATGGGGC"
Result :: 1

Query :: Ok, now "ATTACCGGGG"
Result :: 1.05

Query :: Next record, please: "TAAGGGGCGG"
Result :: 0.989

Query :: Input "TTGCCGGGGC"
Result :: 0.998

Query :: Now the sequence "TACGAGGGGG"
Result :: 1

Query :: Field entry: "CGAAAAGGAG"
Result :: 1.01

Query :: # iterate: "GGCCACGGGG"
Result :: 0.991

Query :: Same again, this time with "AACGGGTAGC"
Result :: 0.993

Query :: Try "TGGGTGAGAT" next.
Result :: 1.01

Query :: What do you get for "CGTTGAGTCG" ?
Result :: 0.992

Query :: What about this sequence? "CGAGAAGTTC"
Result :: 1.02

Query :: Similarly, "GTGTTAGGGC" ?
Result :: 0.992

Query :: Also "ATGGACGGTA" , if possible.
Result :: 1.11

Query :: Field entry: "CGGAGGGGAT"
Result :: 1.06

Query :: Same read-out for "CCAAGCACTT" ?
Result :: 1.45

Query :: Repeat with "CTGGAGGTTG"
Result :: 0.998

Query :: What would you report for "GGGTTTAATC" ?
Result :: 1.08

Query :: Also "CTATTCTTGG" , if possible.
Result :: 0.952

Query :: Then "TAGTGTGGG" ?
Result :: 0.99

Query :: Next entry: "TCCGCAGAG"
Result :: 6.2

Query :: Continue with "TTTTTTTCCT"
Result :: 1.02

Query :: Query "CGTTCAGTTT" next
Result :: 0.993

Query :: Lookup "ATAGGTCCCG"
Result :: 1

Query :: Also "CTTTGTTGGT" , if possible.
Result :: 0.983
